Reference for the values: patent US20090023799A1

test: Approximate solubilities of Form I crystals of T-62 (solvent added until clear solution); assay type: physicochemical; conditions: organic solvent or mixture, thermodynamic from solid; RT; acetone; read-out: Solubility
OBSERVATION TYPE: solubility (mg/mL)
Answers are plain numbers, in mg/mL.

Query :: Consider the compound Nc1sc2c(c1C(=O)c1ccc(Cl)cc1)CCCC2 [Form I] and give its measured solubility.
Result :: 59.8

###

Assay: Approximate solubilities of Form I crystals of T-62 (solvent added until clear solution)
Type: physicochemical
Settings: organic solvent or mixture, thermodynamic from solid; RT; dimethylsulfoxide (DMSO); read-out: Solubility
Description: Solubilities for Form I crystals of T-62 may be estimated based on total solvent used to give a clear solution. A test solvent, either reagent or HPLC (high pressure liquid chromatography) grade, is added in measured aliquots, e.g., 200 or 500 μL, to an accurately weighed sample of T-62 (typically 50 to 90 mg). For some samples, sonication is applied between solvent additions to aid dissolution. Generally, solvent is added until a clear solution is obtained. […]
OBSERVATION TYPE: solubility
Kindly write the number and append the unit.

Query :: Consider the compound Nc1sc2c(c1C(=O)c1ccc(Cl)cc1)CCCC2 [Form I] and give its measured solubility.
Result :: 183 mg/mL

###

assay: Approximate solubilities of Form I crystals of T-62 (solvent added until clear solution); assay type: physicochemical; details: organic solvent or mixture, thermodynamic from solid; RT; CHCl3; read-out: Solubility
OBSERVATION TYPE: solubility (mg/mL)
Numbers only, in mg/mL.

Query :: Consider the compound Nc1sc2c(c1C(=O)c1ccc(Cl)cc1)CCCC2 [Form I] and give its measured solubility.
Result :: 175

###

experiment: Approximate solubilities of Form I crystals of T-62 (solvent added until clear solution); type: physicochemical; conditions: organic solvent or mixture, thermodynamic from solid; RT; ACN; read-out: Solubility
OBSERVATION TYPE: solubility (mg/mL)
Numbers only, in mg/mL.

Query :: Consider the compound Nc1sc2c(c1C(=O)c1ccc(Cl)cc1)CCCC2 [Form I] and give its measured solubility.
Result :: 11.1

###

experiment: Approximate solubilities of Form I crystals of T-62 (solvent added until clear solution); assay type: physicochemical; conditions: organic solvent or mixture, thermodynamic from solid; RT; cyclohexane; read-out: Solubility
OBSERVATION TYPE: solubility (µg/mL)
Answers are plain numbers, in µg/mL.

Query :: Consider the compound Nc1sc2c(c1C(=O)c1ccc(Cl)cc1)CCCC2 [Form I] and give its measured solubility.
Result :: 9800

###

Test: Approximate solubilities of Form I crystals of T-62 (solvent added until clear solution)
Type: physicochemical
Conditions: organic solvent or mixture, thermodynamic from solid; RT; EtOH; read-out: Solubility
Method: Solubilities for Form I crystals of T-62 may be estimated based on total solvent used to give a clear solution. A test solvent, either reagent or HPLC (high pressure liquid chromatography) grade, is added in measured aliquots, e.g., 200 or 500 μL, to an accurately weighed sample of T-62 (typically 50 to 90 mg). For some samples, sonication is applied between solvent additions to aid dissolution. Generally, solvent is added until a clear solution is obtained. […]
OBSERVATION TYPE: solubility (mg/mL)
Answers are plain numbers, in mg/mL.

Query :: Consider the compound Nc1sc2c(c1C(=O)c1ccc(Cl)cc1)CCCC2 [Form I] and give its measured solubility.
Result :: 16.6

###

experiment: Approximate solubilities of Form I crystals of T-62 (solvent added until clear solution); assay type: physicochemical; conditions: organic solvent or mixture, thermodynamic from solid; RT; THF; read-out: Solubility
OBSERVATION TYPE: solubility
Kindly write the number and append the unit.

Query :: Consider the compound Nc1sc2c(c1C(=O)c1ccc(Cl)cc1)CCCC2 [Form I] and give its measured solubility.
Result :: 338 mg/mL

###

experiment: Approximate solubilities of Form I crystals of T-62 (solvent added until clear solution); format: physicochemical; settings: aqueous with cosolvent or surfactant or cyclodextrin, thermodynamic from solid; RT; ACN:H2O - 1:1; read-out: Solubility
OBSERVATION TYPE: solubility (µg/mL)
Give bare numbers, in µg/mL.

Query :: Consider the compound Nc1sc2c(c1C(=O)c1ccc(Cl)cc1)CCCC2 [Form I] and give its measured solubility.
Result :: 8400

###

test: Approximate solubilities of Form I crystals of T-62 (solvent added until clear solution); format: physicochemical; conditions: organic solvent or mixture, thermodynamic from solid; RT; nitromethane; read-out: Solubility
OBSERVATION TYPE: solubility (mg/mL)
Answers are plain numbers, in mg/mL.

Query :: Consider the molecule Nc1sc2c(c1C(=O)c1ccc(Cl)cc1)CCCC2 [Form I] and give its measured solubility.
Result :: 12

###

experiment: Approximate solubilities of Form I crystals of T-62 (solvent added until clear solution); format: physicochemical; conditions: organic solvent or mixture, thermodynamic from solid; RT; MEK; read-out: Solubility
OBSERVATION TYPE: solubility (mg/mL)
Numbers only, in mg/mL.

Query :: Consider the compound Nc1sc2c(c1C(=O)c1ccc(Cl)cc1)CCCC2 [Form I] and give its measured solubility.
Result :: 132

###

assay: Approximate solubilities of Form I crystals of T-62 (solvent added until clear solution); format: physicochemical; details: organic solvent or mixture, thermodynamic from solid; RT; dichloromethane; read-out: Solubility
OBSERVATION TYPE: solubility (mg/mL)
Answers are plain numbers, in mg/mL.

Query :: Consider the compound Nc1sc2c(c1C(=O)c1ccc(Cl)cc1)CCCC2 [Form I] and give its measured solubility.
Result :: 85.3

###

assay: Approximate solubilities of Form I crystals of T-62 (solvent added until clear solution); type: physicochemical; conditions: organic solvent or mixture, thermodynamic from solid; RT; dioxane; read-out: Solubility
OBSERVATION TYPE: solubility (mg/mL)
Numbers only, in mg/mL.

Query :: Consider the compound Nc1sc2c(c1C(=O)c1ccc(Cl)cc1)CCCC2 [Form I] and give its measured solubility.
Result :: 74.9

###

experiment: Approximate solubilities of Form I crystals of T-62 (solvent added until clear solution); format: physicochemical; details: organic solvent or mixture, thermodynamic from solid; RT; MeOH; read-out: Solubility
OBSERVATION TYPE: solubility (mg/mL)
Answers are plain numbers, in mg/mL.

Query :: Consider the compound Nc1sc2c(c1C(=O)c1ccc(Cl)cc1)CCCC2 [Form I] and give its measured solubility.
Result :: 19.8

###

assay: Approximate solubilities of Form I crystals of T-62 (solvent added until clear solution); type: physicochemical; settings: organic solvent or mixture, thermodynamic from solid; RT; MeOH:H2O - 95:5; read-out: Solubility
OBSERVATION TYPE: solubility (µg/mL)
Numbers only, in µg/mL.

Query :: Consider the compound Nc1sc2c(c1C(=O)c1ccc(Cl)cc1)CCCC2 [Form I] and give its measured solubility.
Result :: 8700

###

Assay: Approximate solubilities of Form I crystals of T-62 (solvent added until clear solution)
Type: physicochemical
Conditions: organic solvent or mixture, thermodynamic from solid; RT; hexanes; read-out: Solubility
Protocol: Solubilities for Form I crystals of T-62 may be estimated based on total solvent used to give a clear solution. A test solvent, either reagent or HPLC (high pressure liquid chromatography) grade, is added in measured aliquots, e.g., 200 or 500 μL, to an accurately weighed sample of T-62 (typically 50 to 90 mg). For some samples, sonication is applied between solvent additions to aid dissolution. Generally, solvent is added until a clear solution is obtained. […]
OBSERVATION TYPE: solubility (µg/mL)
One number for each entry, in µg/mL.

Query :: Consider the molecule Nc1sc2c(c1C(=O)c1ccc(Cl)cc1)CCCC2 [Form I] and give its measured solubility.
Result :: 5600

###

assay: Approximate solubilities of Form I crystals of T-62 (solvent added until clear solution); type: physicochemical; conditions: organic solvent or mixture, thermodynamic from solid; RT; toluene; read-out: Solubility
OBSERVATION TYPE: solubility (mg/mL)
Numbers only, in mg/mL.

Query :: Consider the compound Nc1sc2c(c1C(=O)c1ccc(Cl)cc1)CCCC2 [Form I] and give its measured solubility.
Result :: 45.7

###

experiment: Approximate solubilities of Form I crystals of T-62 (solvent added until clear solution); type: physicochemical; conditions: organic solvent or mixture, thermodynamic from solid; RT; EtOH:H2O - 95:5; read-out: Solubility
OBSERVATION TYPE: solubility (mg/mL)
One number for each entry, in mg/mL.

Query :: Consider the compound Nc1sc2c(c1C(=O)c1ccc(Cl)cc1)CCCC2 [Form I] and give its measured solubility.
Result :: 12.8
